Values were extracted from patent US5514814A.

Record set of log10(IC50) for target or system HIV-1 protease (Human immunodeficiency virus type 1 group M subtype B).
Parameter Measured: log10(IC50) (log10 of the value in nM)

- Compound: "O=C(N[C@@H](Cc1ccccc1)[C@@H](O)C[C@]1(Cc2ccccc2)NC=C([C@H]2c3ccccc3C[C@H]2O)C1=O)O[C@H]1CCOC1"
  log10(IC50): 0.30
- Compound: "CC(C)(C)OC(=O)N[C@@H](Cc1ccccc1)[C@@H](O)C[C@]1(Cc2ccccc2)NC=C([C@H]2c3ccccc3C[C@H]2O)C1=O"
  log10(IC50): 1.08
- Compound: "CC(C)CC1(C2=CNC(Cc3ccccc3)(CC(O)C(Cc3ccccc3)NC(=O)OC(C)(C)C)C2=O)NC=C(C(Cc2ccccc2)C(N)=O)C1=O (stereo not drawn)"
  log10(IC50): 1.00
- Compound: "CC(C)C[C@@]1(C2=CN[C@@](Cc3ccccc3)(C[C@H](O)[C@H](Cc3ccccc3)NC(=O)O[C@H]3CCOC3)C2=O)NC=C([C@@H](Cc2ccccc2)C(N)=O)C1=O"
  log10(IC50): 0.11
- Compound: "COC(=O)[C@H](Cc1ccccc1)C1=CN[C@@](CC(C)C)(C2=CN[C@@](Cc3ccccc3)(C[C@H](O)[C@H](Cc3ccccc3)NC(=O)O[C@H]3CCOC3)C2=O)C1=O"
  log10(IC50): 0.30
- Compound: "CC(C)C[C@@]1(C2=CN[C@@](Cc3ccccc3)(C[C@H](O)[C@H](Cc3ccccc3)NC(=O)OC(C)(C)C)C2=O)NC=C([C@@H](Cc2ccccc2)C(=O)NC(C)(C)C)C1=O"
  log10(IC50): 1.68
